AC50 by entry:
Test system: S. cerevisiae Burl-1 ts mutant growth, BacTiter-Glo, 38.5C 24 h
experiment-notes: restored growth of temperature-sensitive Burl-1 yeast – whole organism, S. cerevisiae, Burl-1 ts mutant, luminescence, counter-screen for SUMOylation pathway inhibitor project, dose response (AID 463199)
Activity calls are given as the source filed them.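 How the source made its calls: active means AC50, the dose giving half-maximal effect, exceeds a fixed cutoff for a compound that rescues yeast growth under heat; inactive means the rest, inconclusive results apart.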

Here are 3 compounds together with their reported answers.
>  <compound>
COc1ccc(NC(=O)Cn2c(=O)cnc3ccccc32)cc1S(=O)(=O)N1CCCCC1

>  <endpoint-value>
> 42 µM (inactive)

$$$$
>  <compound>
COC(=O)CCCC(=O)NCC1(N(C)Cc2ccccc2)Cc2ccccc2C1

>  <endpoint-value>
> 42 µM (inactive)

$$$$
>  <compound>
Cc1sc2nc(CN3CCCC3)nc(NCc3ccncc3)c2c1C

>  <endpoint-value>
> 42 µM (inactive)

$$$$

Query :: Supply recorded AC50 for "COc1cc([N+](=O)[O-])cc(/C=N/NC(=O)c2cc(C)nc3ccccc23)c1O" here.
Result :: > 42 µM (inactive)

Query :: Give AC50 for "O=c1/c(=C/c2ccco2)sc2nc(-c3ccccc3Br)nn12"
Result :: > 42 µM (inactive)

Query :: Given "Cn1c(-c2sc3cc(C(F)(F)F)cnc3c2-c2cccs2)n[nH]c1=S" , respond with its AC50.
Result :: > 42 µM (inactive)

Query :: Name the recorded AC50 of the compound listed here: "CC(C)c1cccc(OCCCCN(C)C)c1"
Result :: > 42 µM (inactive)

Query :: # return recorded AC50 for entry "Cc1c(C(=O)N2CCN(CCc3ccccc3)CC2)oc2ccccc12"
Result :: > 42 µM (inactive)

Query :: // Input: O=C(Cc1ccccc1)N1CCCC1c1ccccc1 (stereo unspecified) . Output its AC50 only.
Result :: > 42 µM (inactive)

Query :: Quote AC50 reported for COc1ccc(N2CCN(C(=O)C3CCCN(S(=O)(=O)c4ccc5c(c4)oc(=O)n5C)C3)CC2)cc1 (stereo unspecified) please.
Result :: > 21 µM (inactive)

Query :: Retrieve AC50 measured for "Cc1sc(NC(=O)c2ccc(F)cc2)c(CN2CCCCCC2)c1C" and print it.
Result :: > 42 µM (inactive)

---

System: S. cerevisiae Burl-1 ts mutant growth, BacTiter-Glo, 38.5C 24 h
experiment-notes: restored growth of temperature-sensitive Burl-1 yeast – whole organism, S. cerevisiae, Burl-1 ts mutant, luminescence, counter-screen for SUMOylation pathway inhibitor project, dose response (AID 463199)
Active and inactive are the calls of the source.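 Rule for the calls: active = AC50, the dose giving half-maximal effect, exceeds a fixed cutoff for a compound that rescues yeast growth under heat; inactive = the rest, inconclusive results apart.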
Outcome (select one): 1.0 (active), 0.0 (inactive)

Sample answers from the record:
>  <compound>
CC1(OC(=O)C2CCCC2)C(=O)C=C2C=C(c3ccsc3)OC=C2C1=O (stereo unspecified)

>  <test-system>
S. cerevisiae Burl-1 ts mutant growth, BacTiter-Glo, 38.5C 24 h

>  <assigned-class>
0.0

$$$$
>  <compound>
COC(=O)c1cc2occc2n1Cc1nc(-c2ccccc2C)oc1C

>  <test-system>
S. cerevisiae Burl-1 ts mutant growth, BacTiter-Glo, 38.5C 24 h

>  <assigned-class>
0.0

$$$$
>  <compound>
CCN(CC)CCCn1c(=S)[nH]c2ccc(Cl)cc2c1=O

>  <test-system>
S. cerevisiae Burl-1 ts mutant growth, BacTiter-Glo, 38.5C 24 h

>  <assigned-class>
1.0

$$$$

Query :: Please share the test call associated with Cc1nc2sc(C(c3ccco3)N3CCOCC3)c(O)n2n1 (stereo unspecified) .
Result :: 0.0

Query :: Answer briefly: the call reported for "CC(C)c1onc(C(=O)N(C)Cc2ccccc2)c1[N+](=O)[O-]" in this assay.
Result :: 0.0

Source: PubChem BioAssay AID463199
